Data origin: patent US8664257B2

# target: Recombinant human cathepsin A (Homo sapiens)
# Construct: Recombinant human cathepsin A (residues 29-480, with a C-terminal 10-His tag); 10-His (C); purchased R&D Systems 1049-SE
# Sequence (P10619 29-312 limits assumed): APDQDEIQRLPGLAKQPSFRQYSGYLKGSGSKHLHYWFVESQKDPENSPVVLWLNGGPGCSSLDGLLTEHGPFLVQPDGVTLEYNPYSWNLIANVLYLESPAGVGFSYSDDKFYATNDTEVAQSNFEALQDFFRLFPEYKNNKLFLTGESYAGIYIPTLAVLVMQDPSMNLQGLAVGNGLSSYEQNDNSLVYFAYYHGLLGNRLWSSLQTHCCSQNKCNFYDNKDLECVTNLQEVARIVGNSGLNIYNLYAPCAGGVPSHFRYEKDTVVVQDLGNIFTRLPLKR
# Sequence (P10619 327-480 limits assumed): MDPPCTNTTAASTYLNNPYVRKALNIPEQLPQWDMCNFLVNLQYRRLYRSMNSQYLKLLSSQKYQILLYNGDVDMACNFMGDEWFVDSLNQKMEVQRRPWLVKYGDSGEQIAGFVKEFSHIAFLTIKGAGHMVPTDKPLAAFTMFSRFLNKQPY
# test details: Cathepsin A inhibitory activity
# Format: biochemical
# run parameters: recombinant human cathepsin A 833 ng/ml, Bodipy FL-labeled bradykinin 2 μM, pH 5.5; read-out: CATH-A IC50
# From the text: a) Cathepsin A Inhibitory Activity Recombinant human cathepsin A (residues 29-480, with a C-terminal 10-His tag; R&D Systems, #1049-SE) was proteolytically activated with recombinant human cathepsin L (R&D Systems, #952-CY). […] Uncleaved substrate and product were then separated by a microfluidic capillary electrophoresis on a LabChip® 3000 Drug Discovery System (12-Sipper-Chip; Caliper Life Sciences) and quantified by determination of the respective peak areas. […]
pIC50: −log10 of the molar value.
quantity measured: pIC50

Before answering, review these 4 worked examples.
O=C(O)CC(NC(=O)c1cc(O)n(-c2ccc(F)cc2F)n1)c1cc(Cl)ccc1Cl (centres unmarked) [Example 500]	7.06
CC(C)(C)[C@@](C)(O)COc1cc(C(=O)N[C@@H](CC(=O)O)c2ccccc2Cl)nn1-c1ccccc1F (single isomer, unassigned) [Example 758]	7.76
Cc1ccc(F)cc1C(CC(=O)O)NC(=O)c1cc(O)n(-c2ccccc2Cl)n1 (centres unmarked) [Example 461]	6.82
Cc1ccc([C@H](CC(=O)O)NC(=O)c2cc(OC[C@](C)(O)C(C)C)n(-c3ccccc3F)n2)cc1 [Example 860]	7.12

(I) Cc1c(F)cccc1C(CC(=O)O)NC(=O)c1cc(O)n(-c2ccccc2)n1 (centres unmarked) [Example 494]
(II) O=C(O)CC(NC(=O)c1cc(O)n(-c2cccc(Cl)c2)n1)c1cccc2c1OC(F)(F)O2 (centres unmarked) [Example 464]
(III) O=C(O)CC(NC(=O)c1cc(O)n(-c2ccccc2Cl)n1)c1ccc(-c2ccccn2)cc1 (centres unmarked) [Example 506]
stdin: Write the entries in order, lowest recorded pIC50 first. Note for the reader: the ranking is given by listing the labels in the order requested.
stdout: II, I, III
